Target: GTPase HRas (Homo sapiens) (UniProt P01112)
Sequence (P01112 whole entry, looked up): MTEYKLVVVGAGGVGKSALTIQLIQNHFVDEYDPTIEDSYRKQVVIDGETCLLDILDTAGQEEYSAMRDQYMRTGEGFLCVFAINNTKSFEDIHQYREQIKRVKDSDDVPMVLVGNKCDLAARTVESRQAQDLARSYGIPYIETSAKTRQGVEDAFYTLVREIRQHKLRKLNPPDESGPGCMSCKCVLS
Assay: Ras wt fluorescent GTP loading blockade – biochemical, wildtype, multiplex bead flow cytometry, dose response (AID 1335)
Details: bead-based flow cytometry, Bodipy-GTP binding to GST-Ras; at 100 µM (top of the series) unless noted
GTP binding, percent of control vs 80%: less than gives Satisfied; not less than gives Not satisfied.

structure_as_smiles=O=C(O)c1ccccc1C(=O)OCc1ccccc1 group="Not satisfied"
structure_as_smiles=O=C(COC(=O)/C=C/c1cccs1)Nc1ccc2ccccc2c1 group=Satisfied
structure_as_smiles=COc1cccc2c1c(C(=O)O)cn2CCOc1ccccc1C group="Not satisfied"
structure_as_smiles=Cc1ccc(S(=O)(=O)c2cc3c(=O)n4ccccc4nc3n(C)c2=N)cc1 group=Satisfied
structure_as_smiles=N#C/C(=C\c1ccccc1)c1nc2ncccc2[nH]1 group="Not satisfied"
structure_as_smiles=COc1ccc(-c2nnc(CSc3nc4ccccc4c(=O)n3C)o2)cc1OC group="Not satisfied"
structure_as_smiles=O=C(O)c1ccc(CNCc2cccc(Br)c2)s1 group="Not satisfied"
